protocol description: Viability qHTS for spleen associated tyrosine kinase inhibitor (SYKi) drug resistant MV4-11 cells (AID 1963824); further: nearly all actives have a fitted effect of over 35% in size
test parameters: SYKi-resistant MV4-11 viability, CellTiter-Glo, 72 h; series mostly up to 45 µM
Results filed as inconclusive are left out. Active and inactive are the calls of the source. The call rests on the fitted dose curve; in most records, active means well fitted cell-killing curve with a large enough effect; inconclusive means small, poorly fitted or top-dose-only effect, or effect the other way; inactive means no such curve, though single readings can be large or run the other way. Square brackets hold non-standard residues; d marks the D form. Peptide text beside a SMILES is read from it. * marks the point of attachment. Nva = CCC[C@H](N)C(=O)O; Cbz = O=C(OCc1ccccc1)*
Hello, when you answer, please use one of the following outcomes: yes (active), no (inactive)

What did this assay record as the result for OCC(Cc1ccccc1)Nc1nc(Oc2ccc3c(c2)CCC3)nc2c1ncn2Cc1ccc(-c2ccccc2)cc1 (centres undefined) ?
yes

What did this assay record as the result for `COc1ccc2c(c1)c(C1=C(c3c[nH]c4ccccc34)C(=O)NC1=O)cn2CCCN(C)C` ?
yes

What did this assay record as the result for CCC[C@@H](C=O)NC(=O)[C@H](CC(C)C)NC(=O)[C@H](CC(C)C)NC(=O)OCc1ccccc1 (Cbz-Leu-Leu-[Nva]-aldehyde) ?
yes

What did this assay record as the result for `Cc1ccc(Cl)c(Nc2ccccc2C(=O)O)c1Cl` ?
yes

What did this assay record as the result for COc1c2c(c(C)c3c1C(=O)OC3)OC1(C)CC(O)C34OC(OC)(OC3(C)C)C(O)CC4(C)C1C2 (centres undefined) ?
no

What did this assay record as the result for CCCCS(=N)(=O)CCC(N)C(=O)O (centres undefined) ?
yes

What did this assay record as the result for `Cc1cc2ncc(C(=O)NCC(C)(C)NCC(=O)N3CCC[C@H]3C#N)cn2n1` ?
no

What did this assay record as the result for `CC(C)(O)c1ccc2c(c1)ncn2-c1cccc(-c2ccccc2C#N)c1` ?
yes

What did this assay record as the result for `CCn1cc(C(=O)O)c(=O)c2cc(F)c(N3CCNCC3)cc21` ?
no

----------
protocol description: Quantitative highthroughput screen to assess conditional lethalithy of P12 Ichikawa cells grown in RPMI1640 with dialyzed fetal bovine serum (RPMI+ds) (AID 1963880); further: nearly all actives have a fitted effect of over 35% in size;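 on viability: 100% = DMSO wells and 0% = empty wells on each plate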
test parameters: ATP luminescence, 48 h; P12-Ichikawa viability; series mostly up to 45.8 µM
Results filed as inconclusive are left out. Active and inactive are the calls of the source. The call rests on the fitted dose curve; in most records, active means well fitted cell-killing curve with a large enough effect; inconclusive means small, poorly fitted or top-dose-only effect; inactive means flat fitted curve, though single readings scatter.
Hello, when you answer, please use one of the following outcomes: active, inactive

What did this assay record as the result for `Oc1cccc(-c2nc(N3CCOCC3)c3oc4ncccc4c3n2)c1` ?
inactive

What did this assay record as the result for `O=C(C=Cc1ccc(CN(CCO)CCc2c[nH]c3ccccc23)cc1)NO` ?
active

What did this assay record as the result for `O=C1c2ccccc2-[n+]2ccc3c([nH]c4ccccc43)c21` ?
active

What did this assay record as the result for `COc1ccc(Nc2nccc(NCCO)n2)cc1` ?
inactive

What did this assay record as the result for `CC[C@H]1OC(=O)[C@H](C)C(=O)[C@H](C)[C@@H](O[C@H]2O[C@H](C)C[C@H](N(C)C)[C@@H]2O)[C@](C)(OC)C[C@@H](C)C(=O)[C@H](C)[C@H]2N(CCCCn3cnc(-c4cccnc4)c3)C(=O)O[C@]12C` ?
inactive

What did this assay record as the result for `Cc1cc(SCc2sc(-c3ccc(C(F)(F)F)cc3)nc2C)ccc1OCC(=O)O` ?
inactive

----------
protocol description: Viability qHTS for spleen associated tyrosine kinase inhibitor (SYKi) naive MV4-11 cells (AID 1963823); further: nearly all actives have a fitted effect of over 40% in size
test parameters: MV4-11 AML viability, CellTiter-Glo luminescence, 72 h; series mostly up to 45 µM
Inconclusive results are not listed. Calls of active or inactive are those of the source. The call rests on the fitted dose curve; in most records, active means well fitted cell-killing curve with a large enough effect; inconclusive means small, poorly fitted or top-dose-only effect, or effect the other way; inactive means no such curve, though single readings can be large or run the other way.
Hello, when you answer, please use one of the following outcomes: 1 (active), -1 (inactive)

What did this assay record as the result for `O=C(CCc1ccccc1)c1c(O)c([C@@H]2O[C@H](CO)[C@@H](O)[C@H](O)[C@H]2O)c(O)c([C@@H]2O[C@H](CO)[C@@H](O)[C@H](O)[C@H]2O)c1O` ?
-1

What did this assay record as the result for `C=C[C@H]1CN2CC[C@H]1C[C@@H]2[C@@H](O)c1ccnc2ccc(OC)cc12` ?
-1

What did this assay record as the result for `Cc1ccc2c(Cl)cc(Cl)c(O)c2n1` ?
-1

What did this assay record as the result for N#Cc1ccc(C2CCCc3cncn32)cc1 (centres undefined) ?
-1

What did this assay record as the result for `CC/C=C/CC1=C(CCCCCCCC(=O)O)CCC1=O` ?
-1

What did this assay record as the result for `O=C(NCc1cccc(O)c1)Nc1nc(-c2ccncc2)cs1` ?
1

What did this assay record as the result for `COc1c2occc2cc2ccc(=O)oc12` ?
-1

What did this assay record as the result for `COc1ccc2[nH]c3c(-c4cccc5ccccc45)nccc3c2c1` ?
1

What did this assay record as the result for `COC(=O)[C@@]1(O)C=CC[C@@H]2[C@@]3(C)C[C@@H](c4ccoc4)OC(=O)[C@H]3CC[C@]21C` ?
-1

What did this assay record as the result for `C[C@@H]1C[C@@H]2O[C@H]2/C=C\C=C\C(=O)Cc2c(Cl)c(O)cc(O)c2C(=O)O1` ?
1

What did this assay record as the result for `Nc1ccc(S(=O)(=O)c2ccc(N)cc2)cc1` ?
-1

What did this assay record as the result for `COc1cc(C[C@@H](CO)[C@H](CO)Cc2ccc(O)c(OC)c2)ccc1O` ?
-1

What did this assay record as the result for `CN(C)c1nc(N(C)C)nc(N(C)C)n1` ?
-1

What did this assay record as the result for C=CC1(C)C=C2C(=O)OC(=O)C3=C(CCCC3(C)C)C2(O)CC1 (centres undefined) ?
-1

What did this assay record as the result for `O=C(NC1CCNCC1)c1[nH]ncc1NC(=O)c1c(Cl)cccc1Cl` ?
1

What did this assay record as the result for `Cc1cc(OCCOCC[N+](C)(C)Cc2ccccc2)ccc1C(C)(C)CC(C)(C)C` ?
1

What did this assay record as the result for `C[n+]1ccccc1/C=N/O` ?
-1

What did this assay record as the result for `C=C1CCC[C@]2(C)C[C@]3(O)OC(=O)C(C)=C3C[C@@H]12` ?
-1

What did this assay record as the result for O=C1NC2CCCCN2C12CCN(CCCN1c3ccccc3CCc3ccc(Cl)cc31)CC2 (centres undefined) ?
1

What did this assay record as the result for C=C1CC[C@H]2[C@@](C)(CCC(O)[C@@]2(C)CO)[C@@H]1/C=C/C(=C\C(=O)O)C(=O)O (some centres undefined) ?
-1

What did this assay record as the result for `C[C@H](Cc1ccc(O)c(O)c1)[C@@H](C)Cc1ccc(O)c(O)c1` ?
1

What did this assay record as the result for `OC[C@H]1O[C@@H](n2cnc3c2NC=NC[C@H]3O)C[C@@H]1O` ?
-1

What did this assay record as the result for `COC(=O)c1ccc([C@H]2c3[nH]c4ccccc4c3C[C@H](C(=O)OC)N2C(=O)CCl)cc1` ?
1

What did this assay record as the result for `O=C(O)c1cc(=O)c2c(OCC(O)COc3cccc4oc(C(=O)O)cc(=O)c34)cccc2o1` ?
-1

What did this assay record as the result for `CC(/C=C/[C@]1(O)[C@@]2(C)CO[C@@]1(C)C[C@@H](O)C2)=C\C(=O)O[C@@H]1O[C@H](CO)[C@@H](O)[C@H](O)[C@H]1O` ?
-1

What did this assay record as the result for NC(=O)NC1NC(=O)NC1=O (centres undefined) ?
-1

What did this assay record as the result for `C[C@@H]1CN(CC(=O)Nc2ccc3c(c2)Cc2cccc(-c4cc(=O)cc(N5CCOCC5)o4)c2S3)C[C@H](C)O1` ?
1

What did this assay record as the result for CC(=O)c1c(OCCN2CCCCC2)c(OCCC(C)c2ccc(F)cc2)c2oc(C)nc2c1C (centres undefined) ?
1

What did this assay record as the result for `CC(=O)O[C@@]12CO[C@@H]1C[C@H](O)[C@@]1(C)C(=O)[C@H](O)C3=C(C)[C@@H](OC(=O)[C@H](O)[C@@H](NC(=O)OC(C)(C)C)c4ccccc4)C[C@@](O)([C@@H](OC(=O)c4ccccc4)[C@H]21)C3(C)C` ?
1

What did this assay record as the result for CC/C=C/C=C/C1(C)OC(CC(CO)OC)=CC1=O (centres undefined) ?
1

What did this assay record as the result for C=C1C(OC(C)=O)CCC2(C)CCC(C(C)(C)O)CC12 (centres undefined) ?
-1

What did this assay record as the result for CC(NC(=O)Cc1cc(F)cc(F)c1)C(=O)NC1C(=O)N(C)c2ccccc2-c2ccccc21 (centres undefined) ?
1

What did this assay record as the result for `COc1cc(C)c(/C=C/C(C)=C/C=C/C(C)=C/C(=O)O)c(C)c1C` ?
1

What did this assay record as the result for `O=C(O)CCc1cc2ccoc2cc1O[C@@H]1O[C@H](CO[C@@H]2OC[C@](O)(CO)[C@H]2O)[C@@H](O)[C@H](O)[C@H]1O` ?
-1

What did this assay record as the result for `Cc1ccccc1CN1C2=NCCN2C(=O)C2=C1CCN(Cc1ccccc1)C2` ?
1

What did this assay record as the result for `CC(=O)OCC(=O)Nc1cc(C#N)cc(NC(=O)COC(C)=O)c1Cl` ?
-1

What did this assay record as the result for `CN1CCN(c2cc(C(=O)Nc3ccc4c(c3)-c3c(c(C(N)=O)nn3-c3ccc(F)cc3)CC4)c(Cl)cn2)CC1` ?
1

What did this assay record as the result for `O=C1O[C@H]([C@@H](O)CO)C(O)=C1O` ?
-1

What did this assay record as the result for `O=C(O)CCCC[C@@H]1SC[C@@H]2NC(=O)N[C@@H]21` ?
-1
